meta.source: PubChem BioAssay AID1159580

Experiment: chemical genetic growth profiling, strain panel (AID 1159580);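 note: tested at 20 µM; growth read once vehicle control cultures reached saturation at 30 °C; 1 = growth at the plate median or of vehicle wells; lower values mean less growth of the strain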
Settings: S. cerevisiae deletion strains, growth OD, locus YAL026C, strain drs2, active compounds read low
Out of some 5,500 compounds screened, about 2,000 (36%) were called active. Inconclusive results (about 18%) are left out. The list shows a part of the results.
Collected normalized growth values appear next to each entry.
Give your answer as a number; write no unit.

Examples with answers:
INSERT INTO results (compound, experimental_result) VALUES
  ('CCN[C@@H]1C[C@H](N)[C@@H](O[C@H]2OC(CN)=CC[C@H]2N)[C@H](O)[C@H]1OC1OC[C@](C)(O)[C@H](NC)[C@H]1O (stereo partly drawn)', 0.995),
  ('CC(CC(C(N)=O)(c1ccccc1)c1ccccc1)N(C)C (stereo not drawn)', 0.977),
  ('CC(CC(O)C1OC1(C)C)[C@@H]1CCC2(C)C3=CCC4C(C)(C)C(=O)CCC4(C)C3CC[C@@]12C (stereo partly drawn)', 0.997),
  ('CCc1cc(C(N)=S)ccn1', 1),
  ('OC1CC2CCCC(C1)N2Cc1ccccc1 (stereo not drawn)', 0.993),
  ('CC(=O)OCC1=C(C(=O)O)N2C(=O)[C@@H](NC(=O)Cc3cccs3)[C@H]2SC1', 0.991);

Noted for O=C1C=C2C(=CCOC2O)O1 (stereo not drawn) : its normalized growth reads 0.644

Noted for CC1CCC2(OC1)OC1CC3C4CC[C@H]5C[C@@H](O)CC[C@]5(C)C4CC(=O)[C@]3(C)C1C2C (stereo partly drawn) : its normalized growth reads 1.03

Noted for COc1c2ccoc2cc2oc(=O)ccc12 : its normalized growth reads 0.936

Noted for CCCC(C)(COC(N)=O)COC(=O)NC(C)C (stereo not drawn) : its normalized growth reads 0.99

Noted for COc1ccc2ccc(=O)oc2c1 : its normalized growth reads 1

Noted for CC(C1OC(C)(C)C(O)C1O)[C@@H]1CC[C@]2(C)C3=CCC4C(C)(C)C(=O)CC[C@]4(C)C3CC[C@@]12C (stereo partly drawn) : its normalized growth reads 0.987

Noted for O=c1ccc2c(O)c3ccoc3cc2o1 : its normalized growth reads 0.974

---

Collected normalized growth values appear next to each entry.
Assay: chemical genetic growth profiling, strain panel (AID 1159580)
Settings: S. cerevisiae deletion strains, growth OD, locus YOR265W, strain rbl2, active compounds read low
Screen size: about 5,500 compounds; about 2,000 (36%) were called active. Roughly 18% stayed inconclusive and do not appear here. Some of the results follow.

Examples with answers:
INSERT INTO results (compound, experimental_result) VALUES
  ('COC1=CC(=O)C(C(=O)c2ccccc2)=CC1=O', '0.986 (inactive)'),
  ('C=C[C@H]1CN2CC[C@H]1C[C@@H]2[C@@H](OC(=O)OCC)c1ccnc2ccc(OC)cc12', '0.996 (inactive)'),
  ('O=c1c(O)c(-c2ccc(O)cc2O)oc2cc(O)cc(O)c12', '0.991 (inactive)'),
  ('CC(=O)OCC1=C(C(=O)O)N2C(=O)[C@@H](NC(=O)Cc3cccs3)[C@H]2SC1', '1.02 (inactive)'),
  ('O=c1c(O)c(-c2ccc(O)c(O)c2)oc2c(O)c(O)cc(O)c12', '1 (inactive)');

Noted for COc1ccccc1/C=C\C(=O)O : its normalized growth reads 0.994 (inactive)

Noted for NC(=O)NCCCC(N)C(=O)O (configuration not stated) : its normalized growth reads 0.998 (inactive)

---

Assay: chemical genetic growth profiling, strain panel (AID 1159580)
Details: S. cerevisiae deletion strains, growth OD, locus YLR370C, strain arc18
The campaign covered roughly 5,500 compounds. About 2,000 (36%) were called active. Roughly 18% stayed inconclusive and do not appear here. Rule as the data show it: active = normalized growth mostly below about 0.91 (no sharp cut-off); inconclusive = no clear call, values can overlap the other calls; inactive = mostly above about 0.92. This is one part of the list.
Pick one and only one: 1 (yes) (active), 0 (no) (inactive)

INSERT INTO results (compound, classification) VALUES
  ('C[C@]12CCC3c4ccc(OS(=O)(=O)O)cc4CCC3C1CC[C@H]2O (some centres undefined)', '0 (no)'),
  ('O=c1c(O)c(-c2ccc(O)cc2O)oc2cc(O)cc(O)c12', '0 (no)'),
  ('CCCCCCCCCCCC1=C(O)C(=O)C=C(O)C1=O', '1 (yes)');

Moving on to another compound below.
What outcome does the record of this test show for COc1ccc(-c2cc(=O)c3c(O)cc(O[C@@H]4O[C@H](CO[C@H]5O[C@H](C)[C@@H](O)[C@H](O)[C@@H]5O)[C@@H](O)[C@H](O)[C@H]4O)cc3o2)cc1O ? 0 (no)

---

Assay: chemical genetic growth profiling, strain panel (AID 1159580);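 note: tested at 20 µM; growth read once vehicle control cultures reached saturation at 30 °C; 1 = growth at the plate median or of vehicle wells; lower values mean less growth of the strain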
Details: S. cerevisiae deletion strains, growth OD, locus YJL095W, strain BCK1, active compounds read low
Out of some 5,500 compounds screened, about 2,000 (36%) were called active. Not shown: some 18% with an inconclusive outcome. The list shows a part of the results.
Collected normalized growth values appear next to each entry.
Give your answer as a number; write no unit.

INSERT INTO assay_data (compound, experimental_result) VALUES
  ('CC(C)(C)NCC(O)c1cc(Cl)c(N)c(Cl)c1 (centres undefined)', 1.01),
  ('O=c1cc(-c2ccc(O)cc2)oc2cc(O[C@@H]3O[C@H](CO)[C@@H](O)[C@H](O)[C@H]3O)cc(O)c12', 1.02),
  ('CCc1cccc(CC)c1N(COC)C(=O)CCl', 1.02);

Noted for CCCCCC(=O)Cc1cc(O)cc(O)c1C(=O)Oc1cc(CC(=O)CCCCC)c(C(=O)O)c(OC)c1 : its normalized growth reads 0.99

---

Experiment: chemical genetic growth profiling, strain panel (AID 1159580);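 note: tested at 20 µM; growth read once vehicle control cultures reached saturation at 30 °C; 1 = growth at the plate median or of vehicle wells; lower values mean less growth of the strain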
Conditions: S. cerevisiae deletion strains, growth OD, locus YDR226W, strain ADK1, active compounds read low
Hit rate of the full screen: of about 5,500 compounds, about 2,000 (36%) were called active. Roughly 18% stayed inconclusive and do not appear here. The list shows a part of the results.
RECORDED_ENDPOINT: normalized growth
Give your answer as a number; write no unit.

Examples with answers:
INSERT INTO assay_data (compound, recorded_endpoint, experimental_result) VALUES
  ('COc1ccc(/C=C2/C(=O)Nc3ccccc32)cc1', 'normalized growth', 0.867),
  ('CCOC(=O)N/N=C\c1cc(Cl)cc(Cl)c1O', 'normalized growth', 0.926),
  ('CCCCNC(=S)N/N=C\c1cc(Cl)cc(Cl)c1O', 'normalized growth', 0.924);

Noted for Cc1nnc2n1N=C(c1ccc(CC(C)C)cc1)C(C)S2 (stereo not given) : its normalized growth reads 0.966

Noted for Cc1ccc(NNC(=O)c2cccs2)cc1Cl : its normalized growth reads 0.96

Noted for O=C(NNc1ccc(F)cc1F)c1sccc1Cl : its normalized growth reads 0.968

Noted for COCCCNC(=S)N/N=C\c1cc(Cl)cc(Cl)c1O : its normalized growth reads 0.951

Noted for Cc1cc(Oc2ccc(C(F)(F)F)cc2NS(C)(=O)=O)cc(C)c1Cl : its normalized growth reads 0.979

Noted for CC(C)(C)C(=O)NC(=S)N/N=C\c1cc(Cl)cc(Cl)c1O : its normalized growth reads 0.958

Noted for O=S(=O)(CS(=O)(=O)Oc1ccc(Cl)c(Cl)c1)Oc1ccc(Cl)c(Cl)c1 : its normalized growth reads 0.913

---

Assay: chemical genetic growth profiling, strain panel (AID 1159580);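 note: tested at 20 µM; growth read once vehicle control cultures reached saturation at 30 °C; 1 = growth at the plate median or of vehicle wells; lower values mean less growth of the strain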
Conditions: S. cerevisiae deletion strains, growth OD, locus YDR502C, strain sam2, active compounds read low
Among all 5,500 compounds or so, about 2,000 (36%) were called active. About 18% were inconclusive and are not listed. Some of the results follow.
RECORDED_ENDPOINT: normalized growth
Give your answer as a number; write no unit.

Examples with answers:
INSERT INTO assay_data (molecule, experimental_result) VALUES
  ('CC(=O)OCC1=C(C(=O)O)N2C(=O)[C@@H](NC(=O)Cc3cccs3)[C@H]2SC1', 0.997),
  ('CC1(C)C2CC(=O)[C@]3(C)C(CC[C@@]4(C)[C@H](c5ccoc5)OC(=O)C5OC543)[C@@]2(C)[C@@H](O)C[C@H]1O (stereo not given in full)', 1.01),
  ('CC1CC[C@@]2(OC1)O[C@H]1CC3C4CC[C@@H]5CC(=O)CC[C@]5(C)C4CC[C@]3(C)[C@H]1[C@@H]2C (stereo not given in full)', 0.974),
  ('NC(N)=NC(=O)c1nc(Cl)c(N)nc1N', 1.02),
  ('Cc1[nH]ccc2c1[nH]c1cc(=O)ccc12', 0.992);

Noted for CC1CCC2(OC1)OC1CC3C4CC[C@H]5C[C@@H](O)CC[C@]5(C)C4CC(=O)[C@]3(C)C1C2C (stereo not given in full) : its normalized growth reads 0.98

Noted for CC1(C)C=CC(=O)[C@@]2(C)C1CC(=O)[C@]1(C)C2CC[C@@]2(C)[C@H](c3ccoc3)OC(=O)C3OC321 (stereo not given in full) : its normalized growth reads 0.983

Noted for CNC(=O)Oc1cccc2c1OC(C)(C)O2 : its normalized growth reads 0.997

Noted for CCCCOc1cc(C(=O)NCCN(CC)CC)c2ccccc2n1 : its normalized growth reads 0.996

Noted for C=C[C@H]1CN2CC[C@H]1C[C@@H]2[C@@H](OC(=O)OCC)c1ccnc2ccc(OC)cc12 : its normalized growth reads 1.01

Noted for CC(C)(C)NCC(O)c1cc(O)cc(O)c1 (stereo not given) : its normalized growth reads 0.978

Noted for CC1(C)C(=O)C=C[C@@]2(C)C1C=C[C@]1(C)C2CC[C@@]2(C)[C@H](c3ccoc3)OC(=O)C3OC321 (stereo not given in full) : its normalized growth reads 0.948

Noted for COc1cccc2c(C)cc(=O)[nH]c12 : its normalized growth reads 0.875

Noted for CC1(C)O[C@H]2CC(=O)OC[C@]23[C@H]2CC[C@@]4(C)[C@H](c5ccoc5)OC(=O)[C@H]5O[C@]54[C@]2(C)C(=O)C[C@@H]13 : its normalized growth reads 0.99

Noted for O=C1C=C2C(=CCOC2O)O1 (stereo not given) : its normalized growth reads 0.763
